- Test target: Tryptase beta-1 (Homo sapiens, UniProt Q15661)
- Sequence (Q15661 whole entry): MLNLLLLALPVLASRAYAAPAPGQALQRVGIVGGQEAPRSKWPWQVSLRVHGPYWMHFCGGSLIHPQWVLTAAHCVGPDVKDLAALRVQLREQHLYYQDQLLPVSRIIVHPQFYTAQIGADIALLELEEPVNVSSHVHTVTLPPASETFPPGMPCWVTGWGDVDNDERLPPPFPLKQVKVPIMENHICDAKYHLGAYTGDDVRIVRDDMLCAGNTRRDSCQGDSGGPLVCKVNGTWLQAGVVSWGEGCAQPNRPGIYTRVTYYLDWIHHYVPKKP
- Method summary: In vitro inhibition of human Tryptase beta.
# Lookup of reported log10 Ki keyed by entry
Hi team, quick reminder: these entries are log10 of Ki (µM).

Use these answered entries as a reference point.
Compound	log10 Ki
N=C(N)NCCC[C@H](NC(=O)[C@@H]1CCCN1Cc1ccccc1)C(=O)c1nc2ccccc2s1	-0.60
CC(=O)N1CCC[C@@H]1C(=O)N[C@@H](CCCN=C(N)N)C(=O)c1nc2ccccc2s1	1.15

QUERY: Quick one: log10 Ki of CC(=O)N1C[C@H](O)C[C@H]1C(=O)N[C@@H](CCCNC(=N)N)C(=O)c1nc2ccccc2s1 ?
RESULT: -1.66

QUERY: Quick one: log10 Ki of CC(=O)N1CC(=O)C[C@H]1C(=O)N[C@@H](CCCN=C(N)N)C(=O)c1nc2ccccc2s1 ?
RESULT: -1.14

QUERY: Quick one: log10 Ki of CC(=O)N1C[C@H](O)C[C@H]1C(=O)NC(CCCN=C(N)N)C(=O)c1nccs1 (stereo not given in full) ?
RESULT: -0.74
